The reported numbers originate from PubChem BioAssay (Tox21).

Test: qHTS assay to identify small molecule antagonists of the thyroid receptor (TR) signaling pathway (AID 743065); also: nearly all actives have a fitted effect of over 55% in size
Measurement Conditions: GH3.TRE-Luc, T3-stimulated luciferase inhibition, 23.5 h; series mostly up to 70.3 µM
Inconclusive results are not listed. Active and inactive are the calls of the source. Calls follow the shape of the dose curve; as a rule, active = well fitted inhibition curve with a large enough effect in the repeat runs; inconclusive = weak or mixed curves; inactive = no such curve, though single readings can be large or run the other way. Non-standard residues stand in square brackets, D forms with d. Residues, ends and D or L forms follow the SMILES beside them. pGlu = O=C1CC[C@@H](C(=O)O)N1; Thz = O=C(O)[C@@H]1CSCN1
Outcome codes: active, inactive

1) CC(=O)Nc1ccc(OC(=O)c2ccccc2O)cc1 : inactive
2) CN1c2cc(O)c(N=NC(N)=O)cc2CC1S(=O)(=O)O (stereo not given) : inactive
3) CO[C@H]1C=CO[C@@]2(C)Oc3c(C)c(O)c4c(O)c(c5c(nc6cc(C)ccn65)c4c3C2=O)NC(=O)/C(C)=C\C=C[C@H](C)[C@H](O)[C@@H](C)[C@@H](O)[C@@H](C)[C@H](OC(C)=O)[C@@H]1C : inactive
4) NNc1nnc(Cc2ccncc2)c2ccccc12 : active
5) OC[C@H]1O[C@@H](n2cnc3c2NC=NC[C@H]3O)C[C@@H]1O : inactive
6) CC(=O)Oc1cccc(C(=O)O)c1OC(C)=O : inactive
7) CCCC1C(=O)N2C(N(C)C)=Nc3ccc(C)cc3N2C1=O (stereo not given) : inactive
8) O=C1CC[C@@H](C(=O)N2CSC[C@H]2C(=O)O)N1 ([pGlu]-[Thz]-OH) : inactive
9) O=C(O)CO.[NH2-].[NH2-].[Pt+2] : inactive
10) Clc1cc(Cl)c(OCC#CI)cc1Cl : active
11) C=C1CC2C3CCC4=CC(=O)C=C[C@]4(C)[C@@]3(F)[C@@H](O)C[C@]2(C)[C@@]1(O)C(=O)COC(C)=O (stereo not given in full) : inactive
12) O=C1N=C2SCCN2C(=O)C1Cc1ccc(Cl)cc1 (stereo not given) : inactive
13) CN1CCN(CCCN2c3ccccc3Sc3ccccc32)CC1 : active
14) CCCCCCCCCCCCCCCC(=O)O[C@@H]1[C@@H](O)[C@@H](O)[C@@H]([C@H](NC(=O)[C@@H]2C[C@@H](CCC)CN2C)[C@H](C)Cl)O[C@@H]1SC : inactive
15) CCN1C(=O)NC(c2ccccc2)C1=O (stereo not given) : inactive
16) COc1ccc2c(c1)N(C[C@H](C)CN(C)C)c1ccccc1S2 : active
17) CCOC(=O)C1=C[C@@H](OC(CC)CC)[C@H](NC(C)=O)[C@@H](N)C1 : inactive
18) N#CC(c1ccc(Cl)cc1)c1c(Cl)cc(-n2ncc(=O)[nH]c2=O)cc1Cl (stereo not given) : active
19) O=C(CCCN1CCC(n2c(=S)[nH]c3ccccc32)CC1)c1ccc(F)cc1 : active
20) CO/N=C(\C(=O)N[C@@H]1C(=O)N2C(C(=O)O)=C(CSc3nnnn3C)CS[C@H]12)c1csc(N)n1 : inactive

###

Test: qHTS assay for identifying genotoxic compounds that show differential cytotoxicity against isogenic chicken DT40 cell lines with known DNA damage response pathways - Rad54/Ku70 mutant cell line (AID 743015); also: nearly all actives have a fitted effect of over 60% in size
Measurement Conditions: DT40 Rad54/Ku70 mutant viability, CellTiter-Glo, 40 h; series mostly up to 66.8 µM
Results filed as inconclusive are left out. Active and inactive are the calls of the source. The call rests on the fitted dose curve; in most records, active means well fitted cell-killing curve with a large enough effect in the repeat runs; inconclusive means weak or mixed curves; inactive means no such curve, though single readings can be large or run the other way.
Outcome codes: active, inactive

1) CN[C@@H]1[C@@H](O)[C@@H](O[C@@H]2[C@@H](O)[C@H](OC3OC(CN)=CCC3N)[C@@H](N)C[C@H]2N)OC[C@]1(C)O (stereo not given in full) : inactive
2) CCCCC(=O)OCC(=O)[C@]1(O)Cc2c(O)c3c(c(O)c2[C@@H](O[C@H]2C[C@H](NC(=O)C(F)(F)F)[C@H](O)[C@H](C)O2)C1)C(=O)c1c(OC)cccc1C3=O : active
3) C=C1CC2C3CCC4=CC(=O)C=C[C@]4(C)[C@@]3(F)[C@@H](O)C[C@]2(C)[C@@]1(O)C(=O)COC(C)=O (stereo not given in full) : inactive
4) CC(C)NCC(O)COc1ccccc1-n1cccc1 (stereo not given) : inactive
5) COC(=O)CC[C@H](N)C(=O)O : inactive
6) COc1ccc(-c2noc(CC(=O)O)c2-c2ccc(OC)cc2)cc1 : inactive
7) NCCCNCCCCNC(=O)C(O)NC(=O)CCCCCCN=C(N)N (stereo not given) : active
8) C=CC[C@@H]1/C=C(\C)C[C@H](C)C[C@H](OC)[C@H]2O[C@@](O)(C(=O)C(=O)N3CCCC[C@H]3C(=O)O[C@H](/C(C)=C/[C@@H]3CC[C@@H](O)[C@H](OC)C3)[C@H](C)[C@@H](O)CC1=O)[C@H](C)C[C@@H]2OC : active
9) CC(C)CCC[C@@H](C)[C@H]1CC(=O)C2=C3CC[C@H]4C[C@@H](O)CC[C@]4(C)[C@H]3CC[C@@]21C : active
10) C=C1CC[C@H](O)CC1=C/C=C1\CCC[C@]2(C)[C@@H]([C@H](C)CCCC(C)(C)O)CC[C@@H]12 : active
11) O=C(Nc1ccc(O)cc1)c1ccccc1O : inactive
12) O=C(O)[C@H]1/C(=C/CO)O[C@@H]2CC(=O)N21 : inactive
13) CC[C@@H]1/C=C(\C)C[C@H](C)C[C@H](OC)[C@H]2O[C@@](O)(C(=O)C(=O)N3CCCC[C@H]3C(=O)O[C@H](/C(C)=C/[C@@H]3CC[C@@H](Cl)[C@H](OC)C3)[C@H](C)[C@@H](O)CC1=O)[C@H](C)C[C@@H]2OC : inactive
14) CCN(CC)CCOc1ccccc1OC : inactive
15) CCCCCCCCCCCCCCCCSCC(COC)COP(=O)([O-])OCC[N+](C)(C)C (stereo not given) : inactive
16) O=c1[nH]cnc2[nH]cc(CN3CCCCC3)c12 : inactive
17) CC[C@]1(O)CC2CN(CCc3c([nH]c4ccccc34)[C@@](C(=O)OC)(c3cc4c(cc3OC)N(C)[C@H]3[C@@](O)(C(N)=O)[C@H](O)[C@]5(CC)C=CCN6CC[C@]43[C@@H]65)C2)C1 (stereo not given in full) : active
18) Cc1ccc(C2(O)CCN(CCCC(=O)c3ccc(F)cc3)CC2)cc1 : active
19) Clc1cc(Cl)c(OCC#CI)cc1Cl : active
20) CCCCCCCCCCCCCCCC(=O)O[C@@H]1CC(C)=C(/C=C/C(C)=C/C=C/C(C)=C/C=C/C=C(C)/C=C/C=C(C)/C=C/C2=C(C)C[C@@H](OC(=O)CCCCCCCCCCCCCCC)CC2(C)C)C(C)(C)C1 : inactive
21) CC(C(=O)O)c1ccc(N2Cc3ccccc3C2=O)cc1 (stereo not given) : inactive
22) CCCCCCCCCCCC(=O)N(CCO)CCO : active
23) CO[C@H]1C[C@H](O[C@H]2[C@H](C)[C@@H](O[C@@H]3O[C@H](C)C[C@H](N(C)C)[C@H]3OC(C)=O)[C@@H](C)C[C@]3(CO3)C(=O)[C@H](C)[C@@H](OC(C)=O)[C@@H](C)[C@@H](C)OC(=O)[C@@H]2C)O[C@@H](C)[C@@H]1OC(C)=O : inactive
24) CCCCC[C@H](O)/C=C/[C@@H]1[C@H]2C/C(=C/CCCC(=O)O)O[C@H]2C[C@H]1O : inactive
25) C/C(=C(\CCOC(=O)c1ccccc1)SS/C(CCOC(=O)c1ccccc1)=C(/C)N(C=O)Cc1cnc(C)nc1N)N(C=O)Cc1cnc(C)nc1N : active
26) CC1(O)CCC(C(C)(C)O)CC1 (stereo not given) : inactive
27) Cc1cc2nc3c(=O)[nH]c(=O)nc-3n(C[C@H](O)[C@H](O)[C@H](O)COP(=O)(O)OP(=O)(O)OC[C@H]3O[C@@H](n4cnc5c(N)ncnc54)[C@H](O)[C@@H]3O)c2cc1C : inactive
28) CCCCC(=O)N(Cc1ccc(-c2ccccc2-c2nn[nH]n2)cc1)[C@@H](C(=O)O)C(C)C : inactive
29) CC1(C)S[C@@H]2[C@H](NC(=O)C(C(=O)Oc3ccc4c(c3)CCC4)c3ccccc3)C(=O)N2[C@H]1C(=O)O (stereo not given in full) : inactive
30) CC(=O)N[C@@H]1C(O[C@H]2O[C@H](C(=O)O)C(O)[C@H](O)[C@H]2O)[C@H](O)[C@@H](CO)O[C@H]1O[C@@H]1C(C(=O)O)O[C@@H](O[C@H]2[C@H](O)[C@@H](CO)OC(O)[C@@H]2NC(C)=O)[C@H](O)[C@H]1O (stereo not given in full) : inactive

###

Test: qHTS assay for small molecules that induce genotoxicity in human embryonic kidney cells expressing luciferase-tagged ATAD5 (AID 651632); also: nearly all actives have a fitted effect of over 15% in size
Measurement Conditions: HEK293T ATAD5-luciferase induction, 16 h; series mostly up to 83.3 µM
Inconclusive results are not listed. Active and inactive are the calls of the source. The call rests on the fitted dose curve; in most records, active means well fitted activation curve with a large enough effect in the repeat runs; inconclusive means weak or mixed curves; inactive means no such curve, though single readings can be large or run the other way. Positions of bridges follow the written chain, without caps; N, C: chain ends. Non-standard residues stand in square brackets, D forms with d. Residues, ends and D or L forms follow the SMILES beside them. ξ: configuration not given here. *: point of attachment. d(aThr) = C[C@@H](O)[C@@H](N)C(=O)O; ξThr(3R) = C[C@@H](O)C(N)C(=O)O; X3 = CC[C@@H](C)CCCCC(=O)*; dDab = NCC[C@@H](N)C(=O)O
Outcome codes: YES for active, NO for inactive

1) C#C[C@]1(O)CC[C@H]2[C@@H]3CCC4=CC(=O)CC[C@@H]4[C@H]3C(=C)C[C@@]21CC : NO
2) C#CCOc1ccc2c(C)cc(=O)oc2c1 : NO
3) COc1ccc(CCNC[C@H](O)c2ccc(O)cc2)cc1OC : NO
4) CCCCCc1ccc(C)cc1O : NO
5) C/C=C1\NC(=O)[C@H]2CSSCC/C=C/[C@H](CC(=O)N[C@H](C(C)C)C(=O)N2)OC(=O)C(C(C)C)NC1=O (stereo partly drawn) : YES
6) N#CC(c1ccc(Cl)cc1)c1c(Cl)cc(-n2ncc(=O)[nH]c2=O)cc1Cl (stereo not drawn) : NO
7) CCCCCCCCCCCCCCCCOCCOCCOCCOCCOCCOCCOCCOCCOCCOCCOCCOCCOCCOCCOCCOCCOCCOCCOCCOCCO : NO
8) COc1ccc(CC2c3cc(OC)c(OC)cc3CC[N+]2(C)CCC(=O)OCCCCCOC(=O)CC[N+]2(C)CCc3cc(OC)c(OC)cc3C2Cc2ccc(OC)c(OC)c2)cc1OC (stereo not drawn) : NO
9) CC(=O)OCC(=O)[C@@]1(O)[C@H](C)C[C@H]2[C@@H]3C[C@H](F)C4=CC(=O)C=C[C@]4(C)[C@H]3[C@@H](O)C[C@@]21C : NO
10) Clc1ccc(COC(Cn2ccnc2)c2ccc(Cl)cc2Cl)c(Cl)c1 (stereo not drawn) : NO
11) C[C@H](CCCC(C)(C)O)[C@H]1CC[C@H]2[C@@H]3CC=C4C[C@@H](O)CC[C@]4(C)[C@H]3CC[C@]12C : NO
12) O=C1c2ccccc2C(=O)C1c1ccc(Cl)cc1 : NO
13) COc1cc(NCCCC(C)N)c2ncccc2c1 (stereo not drawn) : NO
14) CC(CCc1ccc(O)cc1)NCC(O)c1ccc(O)cc1 (stereo not drawn) : NO
15) CCCCC(F)(F)[C@@]1(O)CC[C@H]2[C@@H](CC(=O)[C@@H]2CCCCCCC(=O)O)O1 : NO
16) CN1[C@@H]2CCC[C@H]1CC(NC(=O)c1nn(C)c3ccccc13)C2 (stereo partly drawn) : NO
17) CC1=C[C@H](O)CC(C)(C)[C@H]1/C=C/C(C)=C/C=C/C(C)=C/C=C/C=C(C)/C=C/C=C(C)/C=C/C1=C(C)C[C@@H](O)CC1(C)C : NO
18) CC[C@@H](C)CCCCC(=O)N[C@H](CCN)C(=O)N[C@@H](C(=O)N[C@H](CCN)C(=O)N[C@@H]1CCNC(=O)C([C@@H](C)O)NC(=O)[C@@H](CCN)NC(=O)[C@@H](CCN)NC(=O)[C@@H](CC(C)C)NC(=O)[C@@H](Cc2ccccc2)NC(=O)[C@@H](CCN)NC1=O)[C@@H](C)O (stereo partly drawn) (X3-[dDab][d(aThr)][dDab][dDab][dDab][dF][dL][dDab][dDab][ξThr(3R)]; lactam 4-C) : NO
19) C/C=C(/CC[C@@H](C)[C@H]1CC[C@H]2C3=CC[C@H]4[C@H](C)[C@@H](O)CC[C@]4(C)[C@H]3CC[C@]12C)C(C)C : NO
20) C[C@@H]1C/C=C/C=C/C=C/C=C/[C@H](O[C@@H]2O[C@H](C)[C@@H](O)[C@H](N)[C@@H]2O)C[C@@H]2O[C@](O)(C[C@@H](O)C[C@H]3O[C@@H]3/C=C/C(=O)O1)C[C@H](O)[C@H]2C(=O)O : NO
21) CNC(C)CCC=C(C)C (stereo not drawn) : NO
22) CCN(CC)CCOc1ccc2nc(N(C)C)sc2c1 : NO
23) O=C(Cc1cccs1)N[C@@H]1C(=O)N2C(C(=O)[O-])=C(C[n+]3ccccc3)CS[C@H]12 : NO
